- Test system: murine 3T3 fibroblasts
- testMethodNotes: primary screen, percent viability or growth; higher = less effect of the substance

compound | Mammalian (3T3) cell % growth at 10 uM
COc1c(O)cc2oc3cc(O)c(CC=C(C)C)c(O)c3c(=O)c2c1CC=C(C)C | 5.5%
COc1cc([C@@H]2c3cc4c(cc3[C@@H](O[C@@H]3O[C@@H]5CO[C@@H](c6cccs6)O[C@H]5[C@H](O)[C@H]3O)[C@H]3COC(=O)[C@H]23)OCO4)cc(OC)c1O | 50.4%
Cc1cc(/C=C/c2ccc3cc(N(C)C)ccc3[n+]2C)c(C)n1-c1ccccc1.O=C([O-])c1cc2ccccc2c(Cc2c(O)c(C(=O)O)cc3ccccc23)c1O | 50%
C=CC(C)(O)CCC1C(=C)CC(O)C2C(C)(C)CCCC12C (stereo not drawn) | 74%
O=c1[nH]c(=O)n([C@H]2C[C@H](O)[C@@H](CO)O2)cc1F | 86.2%
CC1(C)C(=O)C=CC2(C)C1CC(O)C1(C)C2CCC2(C)C(c3ccoc3)OC(=O)C3OC321 (stereo not drawn) | 76%
COc1c2c(cc3occ(-c4ccc5c(c4)OCO5)c(=O)c13)OC(C)(C)C=C2 | 68.2%
COc1ccc(-c2cc(=O)c3ccccc3o2)cc1OC | 86.4%
COC(=O)[C@H]1[C@H]2C[C@@H]3c4[nH]c5cc(OC)ccc5c4CCN3C[C@H]2C[C@@H](OC(=O)c2cc(OC)c(OC)c(OC)c2)[C@@H]1OC | 100%
CC1(C)C(=O)C2OC2C2(C)C1CC(O)C1(C)C2CCC2(C)C(c3ccoc3)OC(=O)C3OC321 (stereo not drawn) | 77.3%
CN(C)CCC=C1c2ccccc2CCc2ccccc21 | 100%
CC(=O)OC1CC2C(C)(C)C(O)CCC2(C)C2CCC3(C)C(c4ccoc4)OC(=O)C4OC43C12C (stereo not drawn) | 76.3%
CCCC(C(=O)OCCN(CC)CC)(c1ccccc1)c1ccccc1 | 100%
COc1cc2c(cc1OC)C1C(=O)c3ccc4oc(C(C)C)cc4c3OC1CO2 (stereo not drawn) | 39.7%
CC(C)C[C@H]1C(=O)N2CCC[C@H]2[C@]2(O)O[C@](NC(=O)[C@@H]3C=C4c5cccc6[nH]c(Br)c(c56)C[C@H]4N(C)C3)(C(C)C)C(=O)N12.CS(=O)(=O)O | 92.1%
COC(=O)C1=C(C)NC(C)=C(C(=O)OCCN(C)Cc2ccccc2)C1c1cccc([N+](=O)[O-])c1 (stereo not drawn) | 99.8%
CCC1(O)C(=O)OCc2c1cc1n(c2=O)Cc2cc3cc(O)ccc3nc2-1 (stereo not drawn) | 23.9%
Clc1ccc(COC(Cn2ccnc2)c2ccc(Cl)cc2Cl)cc1 (stereo not drawn) | 100%
c1ccc(-c2ccc(C(c3ccccc3)n3ccnc3)cc2)cc1 (stereo not drawn) | 93.6%
O=c1c(-c2ccc(O)cc2)coc2cc(O)cc(O)c12 | 100%
Clc1ccc(C(OCCN2CCCCC2)c2ccccc2)cc1 (stereo not drawn) | 100%
CC(CC(O)C1OC1(C)C)C1CCC2(C)C3=CCC4C(C)(C)C(=O)CCC4(C)C3CCC12C (stereo not drawn) | 100%
C=CC(C1=CC(=O)C(OC)=CC1=O)c1ccc(OC)cc1 (stereo not drawn) | 1.2%
CCCOc1ccc2nc(NC(=O)OC)[nH]c2c1 | 52.8%
CC(=O)OC1CC2C(C)(C)C(=O)C=CC2(C)C2CCC3(C)C(=CC(=O)OC3c3ccoc3)C12C (stereo not drawn) | 56.1%
CCC1(O)CC(O)c2c(cc3c(c2O)C(=O)c2c(O)ccc(O)c2C3=O)C1C(=O)OC (stereo not drawn) | 46.5%
COc1ccc2c(c1)[nH]c1c(C)nccc12 | 87.2%
CCOC(=O)C1=C(COCCN)NC(C)=C(C(=O)OC)C1c1ccccc1Cl.O=S(=O)(O)c1ccccc1 (stereo not drawn) | 100%
CC(=O)OC1c2c(ccc3ccc(=O)oc23)OC(C)(C)C1OC(=O)CC(C)C (stereo not drawn) | 81.2%
C=CC(C)(O)CCC1C(=C)CCC2C(C)(CO)CCCC12C (stereo not drawn) | 86.1%
CC1(C)C(=O)C=CC2(C)C1CC(=O)C1(C)C2CCC2(C)C(c3ccoc3)OC(=O)C3OC321 (stereo not drawn) | 75.8%
CCC(=C(c1ccccc1)c1ccc(OCCN(C)C)cc1)c1ccccc1 | 97%
O=C(/C=C/c1ccc(O)c(O)c1)OCCc1ccccc1 | 1.4%
Oc1ccc(/C=C\c2cc(O)cc(O)c2)cc1 | 24.8%
NC(=O)c1cc([N+](=O)[O-])cc([N+](=O)[O-])c1 | 97.2%
CC(=O)[C@H]1CC[C@H]2[C@@H]3CC[C@H]4C[C@@H](O)CC[C@]4(C)[C@H]3CC[C@]12C | 100%
CC1(C)C(=O)C=CC2(C)C1=C(O)C(=O)C1(C)C2CCC2(C)C(c3ccoc3)CC3OC321 (stereo not drawn) | 25.5%
CCC1(O)CC(OC2CC(N(C)C)C(O)C(C)O2)c2c(cc3c(c2O)C(=O)c2c(O)ccc(O)c2C3=O)C1C(=O)OC (stereo not drawn) | 0.8%
COc1ccc2cc3[n+](cc2c1OC)CCc1cc2c(cc1-3)OCO2 | 75.8%

###

- System: murine 3T3 fibroblasts
- testMethodNotes: primary screen, percent viability or growth; higher = less effect of the substance
Classification field: y = Mammalian (3T3) cell % growth at 10 uM at or over 70%; n = Mammalian (3T3) cell % growth at 10 uM under 70%.

compound | classLabel
COC(=O)CC1C(C)(C)C(OC(C)=O)C2C(OC(C)=O)C34OC2(O)C1(C)C3CCC1(C)C4=CC(=O)OC1c1ccoc1 (centres unmarked) | y
O=c1cc(-c2ccc(O)cc2)oc2cc(O)cc(O)c12 | y
C=CC(C1=CC(=O)C(OC)=CC1=O)c1ccccc1 (centres unmarked) | n
COC(=O)C1(C)CCC2(C)CCC3(C)C4=CC=C5C(=CC(=O)C(O)=C5C)C4(C)CCC3(C)C2C1 (centres unmarked) | n
CN1CCN(CCCN2c3ccccc3Sc3ccc(C(F)(F)F)cc32)CC1 | y
C=C1C(=O)C23C(O)C1CCC2C12COC3(O)C(O)C1C(C)(C)CCC2O (centres unmarked) | n
CC(C)c1c(O)ccc2c1CC[C@H]1C(C)(C)CCC[C@]21C | n
CC[C@H](C)C(=O)O[C@H]1CCC=C2C=C[C@H](C)[C@H](CC[C@@H]3C[C@@H](O)CC(=O)O3)[C@H]21 | n
Cc1ccc(C(=O)C(C)CN2CCCCC2)cc1 (centres unmarked) | n
CC(C)=CCc1c2c(c3occ(-c4ccc(O)cc4)c(=O)c3c1O)C=CC(C)(C)O2 | n
COc1cc(OC)c2c(=O)c(OC)c(-c3ccc(OC)c(OC)c3)oc2c1 | n
CC(=O)O[C@]1(C(C)=O)CC[C@H]2[C@@H]3C=C(Cl)C4=CC(=O)CC[C@]4(C)[C@H]3CC[C@@]21C | y
CC1=CC(=O)C2C(C)(C)CCCC2(C)C1(O)CCc1ccoc1 (centres unmarked) | y
CC(=O)OC1CC2C(C)(C)C(=O)CCC2(C)C2CCC3(C)C(c4ccoc4)OC(=O)C4OC43C12C (centres unmarked) | y
CN(C)CC/C=C1/c2ccccc2Sc2ccc(Cl)cc21 | y
N[C@@H](Cc1ccc(O)c(O)c1)C(=O)O | n
CC(Cc1cccc(C(F)(F)F)c1)NCCOC(=O)c1ccccc1 (centres unmarked) | y
CC[C@@H]1/C=C/C=C/C[C@H](C)[C@@H](O)[C@](C)(O)C(=O)[C@H](C)[C@@H](O)[C@H](C)C(=O)[C@H](C)[C@@H](O)[C@H](C)/C=C/C(=O)O[C@H]2[C@@H](C)[C@@H](CC1)O[C@@]1(CC[C@@H](C)[C@@H](C[C@@H](C)O)O1)[C@@H]2C | n
C=C1CC[C@@H]2C(CC2(C)C)C(=O)CC[C@H]1O (some centres unmarked) | n
COc1cc(O)c2c(c1)C(=O)c1cc(C)cc(O)c1C2=O | y
O=c1cc(-c2cc(O)c(O)c(O)c2)oc2cc(O)cc(O)c12 | y
O=c1c(-c2cc(O)c(O)c(O)c2)coc2cc(O)c(O)c(O)c12 | y
COc1ccc(CCN2CCC(Nc3nc4ccccc4n3Cc3ccc(F)cc3)CC2)cc1 | y
CC(=O)Oc1ccc2c(c1)CCC1C2CCC2(C)C1CC(OC(C)=O)[C@@H]2OC(C)=O (some centres unmarked) | n
O=C1C=C2C(=CCOC2O)O1 (centres unmarked) | n
COc1cc(OC)c2c(=O)c(O)c(-c3ccc(OC)c(OC)c3)oc2c1 | n
C[C@H]1COC2=C1C(=O)C(=O)c1c2ccc2c1CCCC2(C)C | y
OCCN1CCN(CCCN2c3ccccc3Sc3ccc(Cl)cc32)CC1 | n
C=CC(C1=CC(=O)C=CC1=O)c1ccccc1 (centres unmarked) | y
Clc1ccccc1C(c1ccccc1)(c1ccccc1)n1ccnc1 | y
O=C(O)/C=C/c1ccc(O)c(O)c1 | n
